protocol: clinical
condition label: in vivo, po, 30 mg, AUClast, Geometric Least Squares Mean (GLSM), conventional formulation, fasted
measurement type: AUC(0-t)

molecule	measured result
COC(=O)N[C@H](C(=O)N1CC2(CC2)C[C@H]1c1ncc(-c2ccc3c(c2)C(F)(F)c2cc(-c4ccc5nc([C@@H]6[C@H]7CC[C@H](C7)N6C(=O)[C@@H](NC(=O)OC)C(C)C)[nH]c5c4)ccc2-3)[nH]1)C(C)C [Ledipasvir]	1720 ng·h/mL

====

protocol: clinical
condition label: in vivo, po, 30 mg, AUCinf, mean, conventional formulation, 30 mg single dose, fed (high-fat meal)
measurement type: AUC(0-inf)

compound	measurement type	measured result
COC(=O)N[C@H](C(=O)N1CC2(CC2)C[C@H]1c1ncc(-c2ccc3c(c2)C(F)(F)c2cc(-c4ccc5nc([C@@H]6[C@H]7CC[C@H](C7)N6C(=O)[C@@H](NC(=O)OC)C(C)C)[nH]c5c4)ccc2-3)[nH]1)C(C)C [Ledipasvir]	AUC(0-inf)	1180 ng·h/mL

====

protocol: clinical
condition label: in vivo, po, 30 mg, AUCinf, Geometric Least Squares Mean (GLSM), conventional formulation, fasted
measurement type: AUC(0-inf) (ng·h/mL)

compound	measured result
COC(=O)N[C@H](C(=O)N1CC2(CC2)C[C@H]1c1ncc(-c2ccc3c(c2)C(F)(F)c2cc(-c4ccc5nc([C@@H]6[C@H]7CC[C@H](C7)N6C(=O)[C@@H](NC(=O)OC)C(C)C)[nH]c5c4)ccc2-3)[nH]1)C(C)C [Ledipasvir]	2060

====

protocol: clinical
condition label: in vivo, po, 30 mg, AUClast, Geometric Least Squares Mean (GLSM), conventional formulation, fed

compound	AUC(0-t) (ng·h/mL)
COC(=O)N[C@H](C(=O)N1CC2(CC2)C[C@H]1c1ncc(-c2ccc3c(c2)C(F)(F)c2cc(-c4ccc5nc([C@@H]6[C@H]7CC[C@H](C7)N6C(=O)[C@@H](NC(=O)OC)C(C)C)[nH]c5c4)ccc2-3)[nH]1)C(C)C [Ledipasvir]	978

====

protocol: Solubility of ledipasvir in spray dry feed solvents
Type: physicochemical
condition label: methanol, organic solvent or mixture

molecule smiles	solubility
COC(=O)N[C@H](C(=O)N1CC2(CC2)C[C@H]1c1ncc(-c2ccc3c(c2)C(F)(F)c2cc(-c4ccc5nc([C@@H]6[C@H]7CC[C@H](C7)N6C(=O)[C@@H](NC(=O)OC)C(C)C)[nH]c5c4)ccc2-3)[nH]1)C(C)C	> 500 mg/mL

====

protocol: clinical
condition label: in vivo, po, 30 mg
measurement type: Tmax

molecule smiles	measured result
COC(=O)N[C@H](C(=O)N1CC2(CC2)C[C@H]1c1ncc(-c2ccc3c(c2)C(F)(F)c2cc(-c4ccc5nc([C@@H]6[C@H]7CC[C@H](C7)N6C(=O)[C@@H](NC(=O)OC)C(C)C)[nH]c5c4)ccc2-3)[nH]1)C(C)C	6 h

====

protocol: clinical
condition label: in vivo, po, 30 mg, Cmax, mean, conventional formulation, 30 mg single dose, fasted

molecule smiles	unit spec	Cmax
COC(=O)N[C@H](C(=O)N1CC2(CC2)C[C@H]1c1ncc(-c2ccc3c(c2)C(F)(F)c2cc(-c4ccc5nc([C@@H]6[C@H]7CC[C@H](C7)N6C(=O)[C@@H](NC(=O)OC)C(C)C)[nH]c5c4)ccc2-3)[nH]1)C(C)C	ng/mL	73.1
